Source listed as the supplement of paper PMC10567573.

- Assay Comment: protein stability index of a GFP-peptide fusion (GPS, HEK-293T) (PSI 1-6); higher = more stable;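 further: 24-mer peptide tiles fused after GFP, lentivirally expressed, FACS-sorted into six equal bins by GFP/DsRed ratio, decoded by Illumina sequencing, PSI is the read-weighted mean bin number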
- Run Conditions: treatment: MLN4924 1 uM, 8 h; c terminus: a fixed tail appended
Reported protein stability index values for the following sequences.
Parameter: protein stability index

[
  {
    "Sequence Entry": "RHIFMGYLESETETTEAIDDEGWL [ACSBG2]",
    "Parameter": "protein stability index",
    "Assay Result": 4.13
  },
  {
    "Sequence Entry": "NKLQTLSPSHKGIAAPHAGANVKP [ZC2HC1A]",
    "Parameter": "protein stability index",
    "Assay Result": 4.46
  },
  {
    "Sequence Entry": "QFVSSVPRCDLVDLGEGKICFCCE [FAM189A2]",
    "Parameter": "protein stability index",
    "Assay Result": 2.98
  },
  {
    "Sequence Entry": "ILPKELQGWVREHCPESGEEAVIL [ZSCAN9]",
    "Parameter": "protein stability index",
    "Assay Result": 2.95
  },
  {
    "Sequence Entry": "MDSAGQDINLNSPNKGLLSDSMTD [TPD52L2]",
    "Parameter": "protein stability index",
    "Assay Result": 5.25
  },
  {
    "Sequence Entry": "GGRRPGTSPALLQGTAEEDHVDLS [CDKN1A]",
    "Parameter": "protein stability index",
    "Assay Result": 5.33
  },
  {
    "Sequence Entry": "AAASGAAGGGGGGAGAGAPGGGRL [INTS3]",
    "Parameter": "protein stability index",
    "Assay Result": 4.91
  },
  {
    "Sequence Entry": "NVEMDATPGIDLTRVLAEMREQYE [KRT13]",
    "Parameter": "protein stability index",
    "Assay Result": 4.75
  },
  {
    "Sequence Entry": "GVEEIKGHPFFEGVDWEHIRERPA [STK38L]",
    "Parameter": "protein stability index",
    "Assay Result": 4.32
  },
  {
    "Sequence Entry": "PGGVYAGPEPPPVYTNLSSYSPAS [JUNB]",
    "Parameter": "protein stability index",
    "Assay Result": 4.18
  },
  {
    "Sequence Entry": "PPRQALGSLCSPWAAPRVGPLPPA [YPEL3]",
    "Parameter": "protein stability index",
    "Assay Result": 3.2
  },
  {
    "Sequence Entry": "RMGSSESTDSGFCLDSPGPLDSKE [CDC25A]",
    "Parameter": "protein stability index",
    "Assay Result": 5.47
  },
  {
    "Sequence Entry": "ITQSWQVSVRVQPRGRAHLLPNPY [C22orf15]",
    "Parameter": "protein stability index",
    "Assay Result": 3.36
  }
]

* * *

- Assay Comment: protein stability index of a GFP-peptide fusion (GPS, HEK-293T) (PSI 1-6); higher = more stable
- Run Conditions: treatment: MLN4924 1 uM, 8 h; c terminus: a fixed tail appended

[
  {
    "Sequence Entry": "VVSSEGRQSRRQSVSRFFADSGAD [FBF1]",
    "protein stability index": 4.44
  },
  {
    "Sequence Entry": "QNKAQRQKDLIMKVENLTLKNHFQ [TAF7L]",
    "protein stability index": 3.1
  },
  {
    "Sequence Entry": "AGEDNDELIDNLKEAQYIRTELVE [PCMTD2]",
    "protein stability index": 5.02
  },
  {
    "Sequence Entry": "IFGASSVDFSLSGRLLFAGYNDYT [GNB5]",
    "protein stability index": 2.12
  },
  {
    "Sequence Entry": "RIADKFTQHNFQEVMESEEFMLLP [KLHL20]",
    "protein stability index": 3.54
  },
  {
    "Sequence Entry": "LFYSAEVEMLCDQAWGSMLEVPAG [CCDC3]",
    "protein stability index": 2.26
  },
  {
    "Sequence Entry": "LNKELNENQLVRKQDVLGPSTTPP [SASS6]",
    "protein stability index": 5.1
  }
]
